B1: mRNA-splicing (parent)
chain: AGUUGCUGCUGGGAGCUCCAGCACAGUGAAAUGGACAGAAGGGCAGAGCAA

Variants of: B1
Assay: exon inclusion enrichment index; higher = more inclusion; WT1 exon 5 minigene, HEK293
Output schema: class label derived from exon inclusion enrichment index. Mapping: low interval (below 0.2), middle interval (0.2 to below 1), high interval (1 or more)

{"columns": ["SEQUENCE_VARIANT", "GROUP_LABEL"],
 "data": [
  ["G5A U7C G8A U10C A35C", "middle interval"],
  ["G42C G43A", "middle interval"],
  ["C6A U7C C9A U10C A23C C24G", "high interval"],
  ["G5A U7C G8A U10C A23U C24U", "middle interval"],
  ["G5A C6U U7A G8U C9A G42U G43C", "low interval"],
  ["G5C C6U G8C C9U U10C U32A", "high interval"],
  ["G5U G8U C9U A37G G38A", "low interval"],
  ["G5A C6G U7C G8A C9A", "low interval"],
  ["G5A U7C G8A U10C A14G G15C", "high interval"],
  ["G5C C6G U7C U10C A25U G26A", "high interval"],
  ["C6A U7C C9A U10C G28U A29C", "high interval"],
  ["G5A U7C G8A U10C C19U A20U", "middle interval"],
  ["G5A C6U U7A G8U C9A A29G A30U", "low interval"],
  ["C6A U7A C9A U10A G12A G13C", "high interval"],
  ["C6A U7C C9A U10C G15U C16U", "high interval"],
  ["G5C C6U G8C C9U U10C A37U G38C", "high interval"],
  ["C6A U7A C9A U10A G38U", "middle interval"],
  ["G5C C6A U7C G8A U10A G43C C44U", "low interval"],
  ["U4G G5C C6A U7C C9A U10C", "high interval"],
  ["G5U G8U C9U G33U G34U", "low interval"],
  ["G5U G8U C9U A14G G15C", "low interval"],
  ["G41C G42A", "middle interval"],
  ["G5A C6U U7A G8U C9A A47C G48A", "low interval"],
  ["G5A C6U U7A G8U C9A C16U", "low interval"],
  ["C6A U7A C9A U10A A45C G46A", "middle interval"],
  ["G8A C9U", "middle interval"],
  ["C6A U7A C9A U10A U17G", "middle interval"],
  ["U4A C6A U7C C9A U10C", "high interval"],
  ["G2U U3G C6A U7C C9A U10C", "high interval"],
  ["U3G U4A G5U G8U C9U", "low interval"],
  ["G5U G8U C9U C36A A37G", "low interval"],
  ["C6A U7A G8U U10A", "low interval"],
  ["G5A C6U U7A G8U C9A A31C", "low interval"],
  ["C6A U7C C9A U10C G15U C16G", "high interval"],
  ["U3A G5A U7C G8A U10C", "high interval"],
  ["G5U G8U C9U U32A", "low interval"],
  ["G5C C6U G8C C9U U10C G13C A14G", "high interval"],
  ["C6A U7A C9A U10A G26A U27C", "high interval"],
  ["C6A U7C C9G U10G", "low interval"],
  ["U4C G5C C6A U7C C9A U10C", "high interval"],
  ["C6A U7C C9A U10C A30U A31C", "high interval"],
  ["G5A C6U U7A G8U C9A A29G", "low interval"],
  ["G12U", "middle interval"],
  ["G5C C6G U7C U10C G38A A39U", "middle interval"],
  ["G2A G5U G8U C9U", "middle interval"],
  ["C6A U7C C9A U10C A40C G41U", "high interval"],
  ["U4C C6A U7A C9A U10A", "high interval"],
  ["G5C C6G U7C U10C G34A", "high interval"],
  ["U3C G5C C6G U7C U10C", "high interval"],
  ["U4A C6G U7G C9A", "low interval"],
  ["G5A C6U U7A G8U C9A C24A A25G", "low interval"],
  ["G5U G8U C9U G43A", "middle interval"],
  ["G5A C6G U7G C9A C16U U17A", "low interval"],
  ["G5A C6U U7A G8U C9A G42A G43C", "high interval"],
  ["C6A U7C C9A U10C C36A A37G", "high interval"],
  ["G5A C6G U7G C9A G13U A14U", "low interval"],
  ["G5C C6G U7C U10C A20C G21U", "high interval"],
  ["G5A U7A G8A U10C", "high interval"],
  ["G5A C6U U7A G8U C9A C19U", "low interval"],
  ["G5C C6A U7C G8A U10A G42U G43U", "middle interval"],
  ["G5A U7C G8A U10C A45U G46U", "middle interval"],
  ["G5A U7C G8A U10C A30C A31U", "high interval"],
  ["G5A C6U G8C C9A", "middle interval"],
  ["G5A C6U U7A G8U C9A A37U G38A", "low interval"],
  ["G5C C6U G8C C9U U10C G46C", "high interval"],
  ["G5C C6U G8C C9U U10C G12A G13A", "middle interval"],
  ["C6A G8U C9A U10C", "middle interval"],
  ["C6A U7A C9A U10A A23U", "middle interval"],
  ["C6A U7A C9A U10A C19U A20G", "low interval"],
  ["G5C C6G U7C U10C G38C", "high interval"],
  ["U3G U4G G5C C6U G8C C9U U10C", "low interval"],
  ["C6A U7A C9A U10A A47C G48A", "middle interval"],
  ["G5A C6U U7A G8U C9A G13A A14U", "low interval"],
  ["G5C C6A U7C G8A U10A A39U A40G", "low interval"],
  ["C6A U7A C9A U10A A23U C24G", "middle interval"],
  ["C6A U7A C9A U10A G11C G12A", "high interval"],
  ["G5A C6G U7G C9A A39G A40U", "low interval"],
  ["G2U U3A G5U G8U C9U", "middle interval"],
  ["C6A U7C C9A U10C C18G C19U", "high interval"],
  ["U4A G5U C6A U7A C9A U10A", "low interval"],
  ["G5A C6U U7A G8U C9A A39U A40U", "low interval"]
]}
